The following compounds are listed with their measured GI50 values.
Tested on: UO-31
Assay: NCI tumour cell line growth inhibition, 48 h
Calls of active or inactive are those of the source. No stated cut-off is given here; in the data, active = GI50 up to about 1.1 µM and inactive = higher.
Outcome Measure: GI50

# Compound, Measurement
rows = [
    ("COC(=O)C(=O)C(C(=O)C(=O)Nc1ccccc1C(=O)OC)c1nc2ccc(C(=O)c3ccccc3)cc2nc1O (centres undefined)", "31.7 µM (inactive)"),
    ("S=C1NC2=C(COc3ccccc32)C(c2ccc(Cl)cc2)N1 (centres undefined)", "18.4 µM (inactive)"),
    ("CCOC(=O)c1nc2ccc(OC)cc2c2c1Cc1ccccc1-2", "> 100 µM (inactive)"),
    ("COc1ccc2cc(-c3nc(N)nc(N4N=C(C)CC4(C)C)n3)c(=N)oc2c1", "21.5 µM (inactive)"),
    ("Cc1ccc(/C=C/C(=O)Oc2ccc(/C=C3\\CCC/C(=C\\c4ccc(OC(=O)/C=C/c5ccc(C)cc5)cc4)C3=O)cc2)cc1", "> 100 µM (inactive)"),
    ("O=C(c1ccccc1)c1ccc2[nH]c(-c3c(Cl)c(Cl)c(Cl)c(Cl)c3C(=O)N/N=C/c3ccc(Cl)cc3)nc2c1", "42.6 µM (inactive)"),
    ("Cn1ccnc1CCc1ccc(F)cc1F", "> 100 µM (inactive)"),
    ("CC1(c2ccc(F)cc2)CC(c2ccc(F)cc2)=C(C#N)C(=C(C#N)C#N)N1 (centres undefined)", "17.1 µM (inactive)"),
    ("COC(=O)[C@H]1[C@H](C(=O)OC)[C@@H](C)c2c(ccc3c2[nH]c2ccccc23)[C@@H]1C", "> 100 µM (inactive)"),
]

###

Tested on: RXF 393
Test: NCI tumour cell line growth inhibition, 48 h
Active and inactive are the calls of the source. No stated cut-off is given here; in the data, active = GI50 up to about 1.1 µM and inactive = higher.
Classes used: true (1) for active, false (0) for inactive

# Compound, Class Name
measured = [
    ("CCCCCc1cc2cc3c(c(O)c2c(=O)[nH]1)C1(CC3)C(=O)c2c(O)c3c(c(O)c2C1=O)C(=O)C(OC)=CC3=O (stereo not given)", "true (1)"),
    ("O=S1(=O)c2ccccc2N=C(c2ccccc2Cl)CC1c1ccc(F)cc1 (stereo not given)", "false (0)"),
    ("O=C(Nc1nnc(-c2ccc(Cl)cc2)o1)C(SC(=S)N1CCCCC1)c1ccccc1 (stereo not given)", "false (0)"),
    ("CC(C)C[C@H](NC(=O)[C@H](Cc1ccccc1)NC(=O)c1cnccn1)B(O)O", "true (1)"),
    ("O=c1[nH]cnc2sc(=S)c3c(c12)CCC3", "false (0)"),
    ("CN1CCCC2[C@@H]3CCC4=C(O)C(=O)CC[C@]4(C)C3CC[C@@]21C (stereo not given in full)", "false (0)"),
    ("Cc1ccc(NC(=S)C#N)c(C)c1", "false (0)"),
    ("CN(C)CCNc1ccc2ncnc3c2c1C(=O)c1ccccc1-3", "true (1)"),
    ("C=C1C(=O)O[C@H]2C1C[C@H](O)/C(C)=C/CC[C@@]1(C)O[C@H]21 (stereo not given in full)", "false (0)"),
    ("COC(=O)c1c2c(cc3c1CC1(C3)Cc3cc4c(c(C(C)=O)c3C1)CCC4)C=CC2 (stereo not given)", "false (0)"),
    ("CCOC(=O)C1Oc2ccc([N+](=O)[O-])cc2C1(C)O (stereo not given)", "false (0)"),
    ("C[C@@H](CN1CC(=O)NC(=O)C1)N1CC(=O)NC(=O)C1", "false (0)"),
    ("C=C(Cl)C(=C)CCC(Cl)C(C)(C)Cl (stereo not given)", "false (0)"),
    ("Clc1ccc(N/N=C(\\c2ccccc2)c2ccccn2)nc1", "false (0)"),
    ("COC(=O)C(C(=O)C(=O)Nc1cccc(O)c1)c1nc2ccc(Cl)cc2nc1O (stereo not given)", "false (0)"),
    ("CC1(c2cccc(C(F)(F)F)c2)CC(c2cccc(C(F)(F)F)c2)=C(C#N)C(=C(C#N)C#N)N1 (stereo not given)", "false (0)"),
    ("Cc1cc(C)c(C2=NO[C@@H]3[C@H]2C(=O)C=C2N(Cc4ccccc4)CCO[C@@]23O)c(C)c1", "false (0)"),
    ("Cn1c(COC(=O)NC2CCCCC2)c(COC(=O)NC2CCCCC2)c2ccc3cc(Cl)c(Cl)cc3c21", "false (0)"),
    ("O=S(O)CCCCSSCCCCS(=O)(=O)S", "false (0)"),
    ("CCCCCCC1=NOC(C(c2cc[nH]c2)N(C)[C@H](C(=O)OC)C(C)C)C1 (stereo not given in full)", "false (0)"),
]
